Origin of values: patent US8242118B2

target: Human CCR3 (Homo sapiens, UniProt P51677); construct: The cloned CCR3 cDNA was constructed with pcDNA3 vector and transfected into a IC562 cell line; expressed in transfected cells; test: Receptor binding assay (RBA), [125I]-eotaxin; conditions: human CCR3-transformed K562 cells, 0.1 nM [125I]-eotaxin; compounds of about 40 to 90% purity; read-out: Activity grade RBA (IC50 class)
Sequence (P51677 whole entry): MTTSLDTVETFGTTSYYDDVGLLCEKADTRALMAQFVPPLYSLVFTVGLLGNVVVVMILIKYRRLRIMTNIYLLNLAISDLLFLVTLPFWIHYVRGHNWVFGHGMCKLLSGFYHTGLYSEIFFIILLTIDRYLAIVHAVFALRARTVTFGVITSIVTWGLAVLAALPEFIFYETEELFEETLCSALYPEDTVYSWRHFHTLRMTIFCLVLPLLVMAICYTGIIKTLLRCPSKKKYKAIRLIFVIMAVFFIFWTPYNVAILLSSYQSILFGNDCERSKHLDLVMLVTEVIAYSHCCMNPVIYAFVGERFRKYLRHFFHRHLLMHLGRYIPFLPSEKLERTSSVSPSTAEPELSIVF
Value Kind: IC50

**Query** Can you share its IC50? I mean this molecule: CC(C)c1cccc(Oc2ccc([N+](=O)[O-])cc2S(=O)(=O)N2CCNCC2)c1.Cl [Example 1-9]
**Result** < 1 µM

====

Counter-ions that a name gives are not always drawn.
Property: melting point; scope: individual molecules

Consider the worked cases shown below.
CC(=O)c1ccccc1Oc1ccc([N+](=O)[O-])cc1S(=O)(=O)N1CCNCC1.Cl ... 194 to 200 °C
Cc1cc(C)cc(Oc2ccncc2S(=O)(=O)N2CCNCC2)c1 (as salt: hydrochloride) ... 220 °C
Cc1cc(C)cc(Sc2ccc([N+](=O)[O-])cc2S(=O)(=O)N2CCNCC2)c1 (as salt: hydrochloride) ... 225 to 227 °C

Now examine the next entry.
**Query** // returns reported melting point for input CCN1CCN(S(=O)(=O)c2cc([N+](=O)[O-])ccc2Oc2cc(C)cc(C)c2)CC1
**Result** 111 to 112 °C
